# credit: patent US20240043470A1

Target: β5c of hu c-20S (Homo sapiens (Human), UniProt P20618+P28074)
Test: IC50 determination against β5c of human constitutive proteasome (suc-LLVY-AMC hydrolysis);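 also: IC50 obtained by fitting initial reaction velocities to a dose-dependent inhibition model, with SDS present as proteasome activator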
Type: biochemical
Settings: 0.2 nM c-20S, 25 μM suc-LLVY-AMC
IC50 strictly under 2 µM means yes (1); at 2 µM or over means no (0).

CCNC(=O)[C@@H]1Cc2cccc(c2)Oc2cccc(c2)C[C@H](N2CCCCC2)C(=O)N[C@@H](CCc2ccccc2)C(=O)N1 : no (0)
CCN(CC)[C@H]1Cc2cccc(c2)Oc2cccc(c2)C[C@@H](C(=O)NCc2ccccc2)NC(=O)[C@H](CCc2ccccc2)NC1=O : no (0)
CC(C)CNC(=O)[C@@H]1Cc2cccc(c2)Oc2cccc(c2)C[C@H](NC(=O)c2ccccc2)C(=O)N[C@@H](CCc2ccccc2)C(=O)N1 : no (0)
CCN(CC)[C@H]1Cc2cccc(c2)Oc2cccc(c2)C[C@@H](C(=O)NC(C)C)NC(=O)[C@H](CCc2ccccc2)NC1=O : yes (1)
O=C(NC1CCCC1)[C@@H]1Cc2cccc(c2)Oc2cccc(c2)C[C@H](N2CCCC2)C(=O)N[C@@H](CCc2ccccc2)C(=O)N1 : yes (1)

Now consider the entry below.
Query string: Is IC50 strictly under 2 µM for the entry CCC(=O)N[C@H]1Cc2cccc(c2)Oc2cccc(c2)C[C@@H](C(=O)NCC2CC2)NC(=O)[C@H](CCc2ccccc2)NC1=O ?
Result string: yes (1)
